Measured log10 of koff of individual entries
- TARGET_UNDER_TEST: T1, human MSLN-FL-his protein (human, UniProt Q13421 296-580)
- T1 construct: made in HEK293E cells, purified on nickel column; also called hMSLN-FL-his; human MSLN full-length protein; not shown: His tag
- EXPERIMENT: SPR (Biacore), antibody captured on Protein A chip;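 also: measured at 25 °C, analyte injected 240 s in five twofold dilutions from 200 nM, dissociation up to 600 s, double-referenced, fitted with Langmuir 1:1 model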
METRIC: log10 of koff (log10 of the value in s⁻¹)

binder="S009-F1.59.1 (antibody, human IgG1, kappa, V domains shown, human-murine chimeric antibody, human IgG1/kappa constant regions) VH: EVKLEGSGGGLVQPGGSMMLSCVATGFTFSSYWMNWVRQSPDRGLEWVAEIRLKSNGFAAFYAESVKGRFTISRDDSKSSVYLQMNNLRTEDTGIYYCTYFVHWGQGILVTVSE VL: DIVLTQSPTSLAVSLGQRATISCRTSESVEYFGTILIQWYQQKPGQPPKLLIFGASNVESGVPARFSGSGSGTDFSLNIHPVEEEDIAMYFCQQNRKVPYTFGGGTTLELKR" assay_value=-3.04
binder="S009-F2-56.12 (antibody, human IgG1, kappa, V domains shown, human-murine chimeric antibody, human IgG1/kappa constant regions) VH: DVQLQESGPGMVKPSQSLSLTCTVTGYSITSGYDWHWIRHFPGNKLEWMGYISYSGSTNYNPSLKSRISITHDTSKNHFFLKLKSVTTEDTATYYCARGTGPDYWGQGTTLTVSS VL: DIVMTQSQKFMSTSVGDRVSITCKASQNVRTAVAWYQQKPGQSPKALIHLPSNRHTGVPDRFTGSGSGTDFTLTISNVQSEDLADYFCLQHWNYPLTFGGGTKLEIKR" assay_value=-2.51
binder="S009-F6-76.1 (antibody, human IgG1, kappa, V domains shown, human-murine chimeric antibody, human IgG1/kappa constant regions) VH: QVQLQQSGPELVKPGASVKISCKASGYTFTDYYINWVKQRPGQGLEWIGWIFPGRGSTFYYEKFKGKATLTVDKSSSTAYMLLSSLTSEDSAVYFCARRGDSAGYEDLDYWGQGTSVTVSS VL: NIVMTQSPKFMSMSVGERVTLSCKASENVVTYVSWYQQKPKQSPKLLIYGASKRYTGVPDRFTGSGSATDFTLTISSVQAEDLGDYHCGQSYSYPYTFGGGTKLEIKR" assay_value=-3.43
binder="S009-F2.38.12 (antibody, human IgG1, kappa, V domains shown, human-murine chimeric antibody, human IgG1/kappa constant regions) VH: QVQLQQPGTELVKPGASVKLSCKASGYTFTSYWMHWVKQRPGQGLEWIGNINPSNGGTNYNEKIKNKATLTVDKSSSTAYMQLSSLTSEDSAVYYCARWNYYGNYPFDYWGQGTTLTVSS VL: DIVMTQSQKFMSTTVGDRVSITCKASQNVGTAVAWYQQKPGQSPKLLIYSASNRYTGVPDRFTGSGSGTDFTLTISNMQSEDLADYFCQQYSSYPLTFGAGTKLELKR" assay_value=-1.96
binder="S009-F1.25.10 (antibody, human IgG1, kappa, V domains shown, human-murine chimeric antibody, human IgG1/kappa constant regions) VH: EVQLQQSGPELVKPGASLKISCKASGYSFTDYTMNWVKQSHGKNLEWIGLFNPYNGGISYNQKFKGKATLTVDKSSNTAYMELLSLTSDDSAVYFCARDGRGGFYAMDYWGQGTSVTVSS VL: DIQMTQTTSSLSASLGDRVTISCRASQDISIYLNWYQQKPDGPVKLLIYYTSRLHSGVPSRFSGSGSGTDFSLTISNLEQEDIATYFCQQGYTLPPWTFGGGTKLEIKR" assay_value=-3.17
binder="S009-F2.16.10 (antibody, human IgG1, kappa, V domains shown, human-murine chimeric antibody, human IgG1/kappa constant regions) VH: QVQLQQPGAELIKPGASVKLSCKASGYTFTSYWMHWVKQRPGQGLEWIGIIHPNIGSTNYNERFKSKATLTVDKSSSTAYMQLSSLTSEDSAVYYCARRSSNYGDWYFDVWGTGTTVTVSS VL: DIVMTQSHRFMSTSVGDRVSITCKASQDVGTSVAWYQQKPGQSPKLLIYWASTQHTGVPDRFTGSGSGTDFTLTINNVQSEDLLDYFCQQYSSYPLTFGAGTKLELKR" assay_value=-2.79
binder="S009-F4-94.15 (antibody, human IgG1, kappa, V domains shown, human-murine chimeric antibody, human IgG1/kappa constant regions) VH: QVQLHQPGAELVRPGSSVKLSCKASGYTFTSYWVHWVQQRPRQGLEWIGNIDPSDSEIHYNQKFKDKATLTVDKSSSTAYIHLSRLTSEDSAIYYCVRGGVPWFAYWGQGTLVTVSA VL: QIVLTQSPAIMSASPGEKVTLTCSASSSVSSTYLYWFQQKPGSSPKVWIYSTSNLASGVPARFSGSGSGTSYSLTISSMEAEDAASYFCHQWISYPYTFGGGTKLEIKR" assay_value=-3.73
binder="S009-F2.13.3 (antibody, human IgG1, kappa, V domains shown, human-murine chimeric antibody, human IgG1/kappa constant regions) VH: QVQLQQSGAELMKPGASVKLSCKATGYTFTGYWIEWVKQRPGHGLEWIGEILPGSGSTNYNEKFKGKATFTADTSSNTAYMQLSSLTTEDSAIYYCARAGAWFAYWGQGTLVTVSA VL: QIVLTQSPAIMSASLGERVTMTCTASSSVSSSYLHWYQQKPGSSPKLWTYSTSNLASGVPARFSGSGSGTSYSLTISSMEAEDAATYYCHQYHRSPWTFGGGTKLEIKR" assay_value=-2.72
binder="S009-F1.35.24 (antibody, human IgG1, kappa, V domains shown, human-murine chimeric antibody, human IgG1/kappa constant regions) VH: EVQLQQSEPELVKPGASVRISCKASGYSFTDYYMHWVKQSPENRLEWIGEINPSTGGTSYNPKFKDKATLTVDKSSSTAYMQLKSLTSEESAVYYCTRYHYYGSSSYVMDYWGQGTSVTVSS VL: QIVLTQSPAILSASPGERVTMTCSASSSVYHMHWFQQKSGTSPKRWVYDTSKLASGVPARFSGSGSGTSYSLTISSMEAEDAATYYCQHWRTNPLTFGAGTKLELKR" assay_value=-4.07
binder="S009-F3.45.21 (antibody, human IgG1, kappa, V domains shown, human-murine chimeric antibody, human IgG1/kappa constant regions) VH: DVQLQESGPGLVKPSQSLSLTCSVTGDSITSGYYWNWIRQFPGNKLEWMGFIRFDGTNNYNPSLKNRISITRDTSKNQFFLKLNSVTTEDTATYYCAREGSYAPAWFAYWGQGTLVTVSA VL: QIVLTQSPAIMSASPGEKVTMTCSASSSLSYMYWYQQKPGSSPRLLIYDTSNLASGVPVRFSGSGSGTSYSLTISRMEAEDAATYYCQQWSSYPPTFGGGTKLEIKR" assay_value=-3.08
